Assay: total protein half-life in vivo (active degradation + dilution); higher = more stable protein
Details: wild type E. coli NCM3722; growth: C-lim chemostat; doubling time 12 h
Entry flag: true if total protein half-life in vivo reaches 10 h; false if it does not.

Enquiry: Exam item: decide whether the reported total protein half-life in vivo for MKALSPIAVLISALLLQGCVAAAVVGTAAVGTKAATDPRSVGTQVDDGTLEVRVNSALSKDEQIKKEARINVTAYQGKVLLVGQSPNAELSARAKQIAMGVDGANEVYNEIRQGQPIGLGEASNDTWITTKVRSQLLTSDLVKSSNVKVTTENGEVFLMGLVTEREAKAAADIASRVSGVKRVTTAFTFIK is at least 10 h.
Return: true

Enquiry: Repeat with MSNKMTGLVKWFNADKGFGFISPVDGSKDVFVHFSAIQNDNYRTLFEGQKVTFSIESGAKGPAAANVIITD
Return: false

Enquiry: # repeat for MAAVNLRHIEIFHAVMTAGSLTEAAHLLHTSQPTVSRELARFEKVIGLKLFERVRGRLHPTVQGLRLFEEVQRSWYGLDRIVSAAESLREFRQGELSIACLPVFSQSFLPQLLQPFLARYPDVSLNIVPQESPLLEEWLSAQRHDLGLTETLHTPAGTERTELLSLDEVCVLPPGHPLAVKKVLTPDDFQGENYISLSRTDSYRQLLDQLFTEHQVKRRMIVETHSAASVCAMVRAGVGISVVNPLTALDYAASGLVVRRFSIAVPFTVSLIRPLHRPSSALVQAFSGHLQAGLPKLVTSLDAILSSATTA
Return: true

Enquiry: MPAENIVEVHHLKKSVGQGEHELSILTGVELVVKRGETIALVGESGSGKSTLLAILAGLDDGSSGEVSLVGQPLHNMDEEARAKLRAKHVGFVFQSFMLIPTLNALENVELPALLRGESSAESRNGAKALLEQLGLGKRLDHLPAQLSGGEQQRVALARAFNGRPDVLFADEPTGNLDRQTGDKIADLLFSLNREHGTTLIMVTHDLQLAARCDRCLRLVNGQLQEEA [P0A9T8] , same question.
Return: true

Enquiry: Now this one: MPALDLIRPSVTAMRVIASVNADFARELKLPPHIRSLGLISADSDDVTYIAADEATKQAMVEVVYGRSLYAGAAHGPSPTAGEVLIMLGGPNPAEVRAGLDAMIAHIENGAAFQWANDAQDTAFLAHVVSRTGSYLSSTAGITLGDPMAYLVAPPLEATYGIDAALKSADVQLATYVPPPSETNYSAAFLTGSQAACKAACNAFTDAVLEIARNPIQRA
Return: true

Enquiry: Lookup MSKVCIIAWVYGRVQGVGFRYTTQYEAKRLGLTGYAKNLDDGSVEVVACGEEGQVEKLMQWLKSGGPRSARVERVLSEPHHPSGELTDFRIR [P0AB65]
Return: false

Enquiry: Param item: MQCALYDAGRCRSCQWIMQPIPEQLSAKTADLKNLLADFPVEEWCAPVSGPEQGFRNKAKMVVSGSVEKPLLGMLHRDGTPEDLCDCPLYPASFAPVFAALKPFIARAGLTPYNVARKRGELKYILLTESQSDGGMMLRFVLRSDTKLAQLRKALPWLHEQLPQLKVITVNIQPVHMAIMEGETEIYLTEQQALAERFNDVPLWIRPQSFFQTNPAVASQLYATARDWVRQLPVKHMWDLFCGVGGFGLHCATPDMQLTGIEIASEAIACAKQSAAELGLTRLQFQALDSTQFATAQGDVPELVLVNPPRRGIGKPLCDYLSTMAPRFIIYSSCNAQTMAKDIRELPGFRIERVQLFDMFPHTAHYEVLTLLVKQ
Return: true

Enquiry: Moving on to the next sequence: MNGTIYQRIEDNAHFRELVEKRQRFATILSIIMLAVYIGFILLIAFAPGWLGTPLNPNTSVTRGIPIGVGVIVISFVLTGIYIWRANGEFDRLNNEVLHEVQAS [P0AF54]
Return: false

Enquiry: Entry to check: MSKLDLNALNELPKVDRILALAETNAELEKLDAEGRVAWALDNLPGEYVLSSSFGIQAAVSLHLVNQIRPDIPVILTDTGYLFPETYRFIDELTDKLKLNLKVYRATESAAWQEARYGKLWEQGVEGIEKYNDINKVEPMNRALKELNAQTWFAGLRREQSGSRANLPVLAIQRGVFKVLPIIDWDNRTIYQYLQKHGLKYHPLWDEGYLSVGDTHTTRKWEPGMAEEETRFFGLKRECGLHEG
Return: false

Enquiry: Quick one: MYKTIIMPVDVFEMELSDKAVRHAEFLAQDDGVIHLLHVLPGSASLSLHRFAADVRRFEEHLQHEAQERLQTMVSHFTIDPSRIKQHVRFGSVRDEVNELAEELGADVVVIGSRNPSISTHLLGSNASSVIRHANLPVLVVR
Return: true

Enquiry: Same question for MYPVDLHMHTVASTHAYSTLSDYIAQAKQKGIKLFAITDHGPDMEDAPHHWHFINMRIWPRVVDGVGILRGIEANIKNVDGEIDCSGKMFDSLDLIIAGFHEPVFAPHDKATNTQAMIATIASGNVHIISHPGNPKYEIDVKAVAEAAAKHQVALEINNSSFLHSRKGSEDNCREVAAAVRDAGGWVALGSDSHTAFTMGEFEECLKILDAVDFPPERILNVSPRRLLNFLESRGMAPIAEFADL please.
Return: false
